Tested on: E. coli M 50
measurement-description: Agar dilution MIC (CLSI), beta-lactam with or without beta-lactamase inhibitor
Type: cell-based
settings: Ceftazidime in combination with inhibitor at 4 mcg/ml; Class C ESBL strain

compound	result-comparator	MIC of Ceftazidime + inhibitor [µg/mL]
O=C(O)[C@H]1/C(=C/CO)O[C@@H]2CC(=O)N21 [Clavulanic acid, clavulanic acid]	>	32
N#C[C@@H]1CC[C@@H]2CN1C(=O)N2OS(=O)(=O)[O-].[Na+]	=	1
C[C@]1(Cn2ccnn2)[C@H](C(=O)O)N2C(=O)C[C@H]2S1(=O)=O [Tazobactam, tazobactam]	>	32
O=C(NC1CCNCC1)[C@@H]1CC[C@@H]2CN1C(=O)N2OS(=O)(=O)O [MK 7655]	=	2
NC(=O)[C@@H]1CC[C@@H]2CN1C(=O)N2OS(=O)(=O)O [NXL104]	=	1
